ASSAY TARGET: Fatty-acid amide hydrolase 1 (Rattus norvegicus, UniProt P97612)
Sequence (P97612 whole entry): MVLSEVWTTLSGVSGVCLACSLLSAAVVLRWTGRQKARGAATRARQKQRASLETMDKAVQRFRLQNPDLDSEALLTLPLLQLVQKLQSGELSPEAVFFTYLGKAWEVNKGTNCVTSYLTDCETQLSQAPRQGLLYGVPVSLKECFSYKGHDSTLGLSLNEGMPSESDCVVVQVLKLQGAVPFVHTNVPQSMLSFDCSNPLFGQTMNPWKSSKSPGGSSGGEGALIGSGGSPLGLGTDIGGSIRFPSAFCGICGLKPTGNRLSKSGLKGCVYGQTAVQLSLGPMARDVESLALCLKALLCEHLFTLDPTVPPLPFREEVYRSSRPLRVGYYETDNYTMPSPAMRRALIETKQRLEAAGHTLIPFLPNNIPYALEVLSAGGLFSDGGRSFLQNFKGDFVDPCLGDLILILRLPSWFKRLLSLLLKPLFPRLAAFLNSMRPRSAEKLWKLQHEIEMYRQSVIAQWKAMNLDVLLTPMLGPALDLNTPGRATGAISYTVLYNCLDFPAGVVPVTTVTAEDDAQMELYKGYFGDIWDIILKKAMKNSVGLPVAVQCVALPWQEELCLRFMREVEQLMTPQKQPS
PROTOCOL DESCRIPTION: Inhibition of rat recombinant FAAH assessed as [3H]AEA hydrolysis preincubated 60 mins before [3H]AEA substrate addition
MEASUREMENT TYPE: IC50 (µM)
Your answer is read as µM, so omit the unit and give the number.

CCCCC/C=C\C/C=C\CCCCCCCC(=O)NCCI; 7.33

(Q) Can you look up the measured IC50 of CCCCC/C=C\C/C=C\C/C=C\C/C=C\CCCC(=O)NCCI for me?
(A) 10.1

* * *

ASSAY TARGET: UniProt P97612
PROTOCOL DESCRIPTION: Inhibition of rat recombinant FAAH assessed as [3H]AEA hydrolysis preincubated before [3H]AEA substrate addition
Reported IC50 values follow for various molecules
Your answer is read as µM, so omit the unit and give the number.

CCCCC/C=C\C/C=C\CCCCCCCC(=O)NCCI; 6.2

Shifting focus to the molecule that follows.
(Q) Can you look up the measured IC50 of CCCCC/C=C\C/C=C\C/C=C\C/C=C\CCCC(=O)NCCI for me?
(A) 4.31

This collection of values is drawn from ChEMBL document CHEMBL1139323.
